- Test system: hepatocellular carcinoma cell line Hub-7
- measurement_notes: Cell proliferation assay, Hub-7 (CELL-TITER GLO)
- Type: cell-based
- test_settings: Hub-7 cells, 24 h incubation, cell viability by CELL-TITER GLO, top concentration 10 μM; read-out: EC50, Inhibition of Hub-7 Cell Proliferation
pEC50: −log10 of the molar value.
Catalogue of pEC50 values

C#Cc1nc(C(=O)N2CCC(c3ccc(C#N)cc3)CC2)cs1 [Compound D24] :: ≥ 6.70
C#Cc1nc(C(=O)NCc2cccc([N+](=O)[O-])c2)cs1 [Compound C107] :: 6.00 to 6.70
C#Cc1nc(C(=O)NCCc2ccc(-c3cccc4scnc34)cc2)cs1 [Compound C31] :: 6.00 to 6.70
C#Cc1nc(C(=O)NC2Cc3ccccc3C2)cs1 [Compound C62] :: 6.00 to 6.70

C#Cc1nc(C(=O)NCc2cccc(-c3cccnc3)c2)cs1 [Compound C65] on hepatocellular carcinoma cell line Hub-7 gives pEC50 = 5.30 to 6.00

Reading of pEC50 for C#Cc1nc(C(=O)NCCc2ccc(-c3cccc4c3CC(=O)N4C)cc2)cs1 [Compound C43] with hepatocellular carcinoma cell line Hub-7: 6.00 to 6.70

###

- Test system: hepatocellular carcinoma cell line Hub-7
- measurement_notes: Cell proliferation assay, Hub-7 (CELL-TITER GLO)
- Assay type: cell-based
- test_settings: Hub-7 cells, 24 h incubation, cell viability by CELL-TITER GLO, top concentration 10 μM; read-out: EC50, Inhibition of Hub-7 Cell Proliferation
Measured EC50, listed per entry.

Worked cases, EC50 given:
C#Cc1nc(C(=O)NCc2ccccc2-c2ccccc2)cs1 [Compound C112] :: 200 to 1000 nM
C#Cc1nc(C(=O)NCc2cccc3[nH]ccc23)cs1 [Compound C139] :: > 5000 nM
C#Cc1nc(C(=O)NCCc2ccc([N+](=O)[O-])cc2)cs1 [Compound C129] :: ≤ 200 nM
C#Cc1nc(C(=O)NCCc2cccc(-c3cscn3)c2)cs1 [Compound E7] :: 1000 to 5000 nM
C#Cc1nc(C(=O)NCc2cccc(NC(C)=O)c2)cs1 [Compound C94] :: 1000 to 5000 nM
C#Cc1nc(C(=O)N2CCN(c3cccc(-c4cccc5ncsc45)c3)CC2)cs1 [Compound D16] :: 200 to 1000 nM
C#Cc1nc(C(=O)N2CCC(O)(c3ccc(-c4cccc5ncsc45)cc3)CC2)cs1 [Compound D14] :: ≤ 200 nM
C#Cc1nc(C(=O)N2CCN(c3ccc(-c4cc(C(=O)N(C)C)cc5ncsc45)cc3)CC2)cs1 [Compound D6] :: ≤ 200 nM
C#Cc1nc(C(=O)NCCc2ccc(-c3ccc4scnc4c3)cc2)cs1 [Compound C25] :: 200 to 1000 nM
C#Cc1nc(C(=O)NCCc2ccc(-c3cccc4c3cnn4C)cc2)cs1 [Compound C33] :: 200 to 1000 nM

// recorded EC50 for C#Cc1nc(NC(=O)[C@@H](N)Cc2ccccc2)cs1 [Compound E2] : 1000 to 5000 nM

The recorded EC50 for C#Cc1nc(C(=O)NCCc2ccc(-c3cccnc3)cc2)cs1 [Compound C79] is 200 to 1000 nM

Input C#Cc1nc(C(=O)NCc2ccccn2)cs1 [Compound C126] . Output EC50: 1000 to 5000 nM

Entry C#Cc1nc(C(=O)NCc2ccc(-c3ccccc3)cc2)cs1 [Compound C114] , EC50 reported as ≤ 200 nM

Form field EC50, entry C#Cc1nc(C(=O)NCCc2ccc(-c3cnn(C)c3)cc2)cs1 [Compound C75] : 200 to 1000 nM

// sample C#Cc1nc(C(=O)NCc2ccc3ncccc3c2)cs1 [Compound C96] , its EC50 was 1000 to 5000 nM

Recorded result, C#Cc1nc(C(=O)Nc2cccc3[nH]ncc23)cs1 [Compound C130] , EC50: 1000 to 5000 nM

###

- System: hepatocellular carcinoma cell line Hub-7
- measurement_notes: Cell proliferation assay, Hub-7 (CELL-TITER GLO)
- Assay type: cell-based
- test_settings: Hub-7 cells, 24 h incubation, cell viability by CELL-TITER GLO, top concentration 10 μM; read-out: EC50, Inhibition of Hub-7 Cell Proliferation
pEC50: −log10 of the molar value.
Overview of recorded pEC50 for various compounds

C#Cc1nc(C(=O)NCc2ccc([N+](=O)[O-])cc2)cs1 :: ≥ 6.70

Reported pEC50 for C#Cc1nc(NC(=O)NCc2ccc(-c3cccc4c3cnn4C)cc2)cs1 was ≥ 6.70

response.value for C#Cc1nc(C(=O)NCc2ccccc2CO)cs1 (field: pEC50) = 5.30 to 6.00

Record C#Cc1nc(NC(=O)NCc2ccc(-c3cc(C(=O)N(C)C)cc4c3cnn4C)cc2)cs1 . Reported pEC50: 6.00 to 6.70

The compound C#Cc1nc(NC(=O)CCc2ccc(-c3cccc4ncsc34)cc2)cs1 [Compound E1] showed pEC50 equal to 6.00 to 6.70

The recorded pEC50 for C#Cc1nc(C(=O)N2CCC(c3ccc(-c4cccc5[nH]ncc45)cc3)CC2)cs1 is ≥ 6.70

pEC50 in this record for C#Cc1nc(C(=O)NCCc2ccc(-c3cccc4ncsc34)cc2)cs1 : ≥ 6.70

Looking up C#Cc1nc(C(=O)NCc2cccc(-c3cn[nH]c3)c2)cs1 , I found its pEC50 recorded as 5.30 to 6.00

Lookup result for C#Cc1nc(C(=O)N[C@@H]2CCc3ccccc32)cs1 ; measured pEC50: 6.00 to 6.70

For this compound ( C#Cc1nc(C(=O)N(CC(=O)OCC)Cc2ccccc2)cs1 ), measured pEC50 is 5.30 to 6.00

GET /value?item= C#Cc1nc(C(=O)NCc2ccc(CCC(=O)OC)cc2)cs1 &field=pEC50 returns < 5.30

Notebook: C#Cc1nc(NC(=O)CCc2ccc3c(c2)OCO3)cs1 , pEC50 read as 6.00 to 6.70

pEC50 for C#Cc1nc(C(=O)NCCc2ccc(-c3cncs3)cc2)cs1 is 6.00 to 6.70

Sourced from patent US20240101546A1
